# Tested on: CDS-ZH002 direct (CIC-DUX4 sarcoma cells right after isolation)
# protocol_details: differential drug sensitivity score (dDSS) relative to sarcoma reference cohort mean DSS (DSS units (0-100 scale difference)); higher = more selective sensitivity than reference sarcomas
# test_conditions: exposure time: 72 h; concentration range: 10-10000 nM
So I've got a bunch of molecules here, and I need their differential drug sensitivity score values.
Give bare numbers.

For orientation, consider the following solved cases.
>  <molecule>
CC(C)(O)CNc1nc(Nc2ccnc(C(F)(F)F)c2)nc(-c2cccc(C(F)(F)F)n2)n1 [Enasidenib]

>  <differential drug sensitivity score>
-1.3

$$$$
>  <molecule>
C=CCn1c(=O)c2cnc(Nc3ccc(N4CCN(C)CC4)cc3)nc2n1-c1cccc(C(C)(C)O)n1 [Adavosertib]

>  <differential drug sensitivity score>
-2.6

$$$$
>  <molecule>
C=CC(=O)N1CCN(c2nc(=O)n(-c3c(C)ccnc3C(C)C)c3nc(-c4c(O)cccc4F)c(F)cc23)[C@@H](C)C1 [Sotorasib]

>  <differential drug sensitivity score>
1.9

$$$$
>  <molecule>
CO[C@H]1C[C@@H]2CC[C@@H](C)[C@@](O)(O2)C(=O)C(=O)N2CCCC[C@H]2C(=O)O[C@H]([C@H](C)C[C@@H]2CC[C@@H](OC(=O)C(C)(CO)CO)[C@H](OC)C2)CC(=O)[C@H](C)/C=C(\C)[C@@H](O)[C@@H](OC)C(=O)[C@H](C)C[C@H](C)/C=C/C=C/C=C/1C [Temsirolimus]

>  <differential drug sensitivity score>
4.8

$$$$
>  <molecule>
CC(=O)c1c(C)c2cnc(Nc3ccc(N4CCNCC4)cn3)nc2n(C2CCCC2)c1=O [Palbociclib]

>  <differential drug sensitivity score>
-0.3

$$$$

Consider now this further molecule.
Reported differential drug sensitivity score, molecule C[C@]1(c2nc3c(C(N)=O)cccc3[nH]2)CCCN1 [Veliparib] : ____
-1.3

Numbers sourced from the supplement of paper PMC12370961.
